System: MCF7
test_description: NCI 60 antitumor screening (single dose)
Assay type: cell-based
condition_context: Homo sapiens; MCF7 (breast cancer), single dose 10 μM; read-out: Growth inhibition percentage (GI %)
Method: Initially, the anticancer effects of target compounds have been assessed at a single (10 μM) dose. The obtained data have been reported as mean-graph of the percent growth (G%) of the treated cancer cells. Percentage growth inhibition (GI%) is calculated (100 − G%) and pronounced in Table 1. […] Target compounds in series (III) with manipulated linkers disclosed lower potency. […]
Give T when the value for inhibition at 10 µM is at least 30%. Give F when it is less.

{"chemical_structure": "Fc1cccc(Cl)c1/C=N/Nc1nc(N/N=C/c2c(F)cccc2Cl)nc(N2CCCCC2)n1", "group": "T"}
{"chemical_structure": "Clc1cccc(/C=N/Nc2nc(N/N=C/c3cccc(Cl)c3Cl)nc(N3CCOCC3)n2)c1Cl", "group": "F"}
{"chemical_structure": "Oc1ccc(/C=N/Nc2nc(N/N=C/c3ccc(O)c(O)c3)nc(N3CCCCC3)n2)cc1O", "group": "F"}
{"chemical_structure": "O=C(NNc1nc(NNC(=O)c2ccccc2)nc(N2CCOCC2)n1)c1ccccc1", "group": "F"}
{"chemical_structure": "Brc1cccc(/C=N/Nc2nc(N/N=C/c3cccc(Br)c3)nc(N3CCCCC3)n2)c1", "group": "F"}

---

System: KM 12
test_description: NCI 60 antitumor screening (single dose)
Assay type: cell-based
condition_context: Homo sapiens, KM12; KM 12 (colon cancer), single dose 10 μM; read-out: Growth inhibition percentage (GI %)

{"compound": "Oc1ccccc1/C=N/Nc1nc(N/N=C/c2ccccc2O)nc(N2CCOCC2)n1", "measurement_unit": "%", "inhibition at 10 µM": 47.3}
{"compound": "C/C(=N\\Nc1nc(N/N=C(\\C)c2ccc([N+](=O)[O-])cc2)nc(N2CCOCC2)n1)c1ccc([N+](=O)[O-])cc1", "measurement_unit": "%", "inhibition at 10 µM": 17.9}
{"compound": "O=[N+]([O-])c1cccc(/C=N/Nc2nc(N/N=C/c3cccc([N+](=O)[O-])c3)nc(N3CCOCC3)n2)c1", "measurement_unit": "%", "inhibition at 10 µM": 15}
{"compound": "Oc1ccccc1/C=N/Nc1nc(N/N=C/c2ccccc2O)nc(N2CCCCC2)n1", "measurement_unit": "%", "inhibition at 10 µM": 52.5}
{"compound": "C(=N\\Nc1nc(N/N=C/c2ccc3c(c2)OCO3)nc(N2CCOCC2)n1)/c1ccc2c(c1)OCO2", "measurement_unit": "%", "inhibition at 10 µM": 17.4}
{"compound": "Fc1cccc(/C=N/Nc2nc(N/N=C/c3cccc(F)c3)nc(N3CCOCC3)n2)c1", "measurement_unit": "%", "inhibition at 10 µM": 0.3}
{"compound": "COC(=O)C(Cc1ccccc1)Nc1nc(NC(Cc2ccccc2)C(=O)OC)nc(N2CCOCC2)n1 (stereo not shown)", "measurement_unit": "%", "inhibition at 10 µM": 0.3}
{"compound": "Clc1cccc(/C=N/Nc2nc(N/N=C/c3cccc(Cl)c3Cl)nc(N3CCCCC3)n2)c1Cl", "measurement_unit": "%", "inhibition at 10 µM": 32.8}
{"compound": "CN(C)c1ccc(/C=N/Nc2nc(N/N=C/c3ccc(N(C)C)cc3)nc(N3CCCCC3)n2)cc1", "measurement_unit": "%", "inhibition at 10 µM": 6.98}
{"compound": "Clc1cccc(/C=N/Nc2nc(N/N=C/c3cccc(Cl)c3Cl)nc(N3CCOCC3)n2)c1Cl", "measurement_unit": "%", "inhibition at 10 µM": 8.19}
{"compound": "O=[N+]([O-])c1cc(/C=N/Nc2nc(N/N=C/c3ccc(Cl)c([N+](=O)[O-])c3)nc(N3CCCCC3)n2)ccc1Cl", "measurement_unit": "%", "inhibition at 10 µM": 94.5}
{"compound": "CN(C)c1ccc(/C=N/Nc2nc(N/N=C/c3ccc(N(C)C)cc3)nc(N3CCOCC3)n2)cc1", "measurement_unit": "%", "inhibition at 10 µM": -3.9}
{"compound": "Clc1cccc(/C=N/Nc2nc(N/N=C/c3cccc(Cl)c3)nc(N3CCCCC3)n2)c1", "measurement_unit": "%", "inhibition at 10 µM": 8.95}
{"compound": "O=C(NNc1nc(NNC(=O)c2ccccc2)nc(N2CCOCC2)n1)c1ccccc1", "measurement_unit": "%", "inhibition at 10 µM": -5.4}
{"compound": "Clc1cccc(/C=N/Nc2nc(N/N=C/c3cccc(Cl)c3)nc(N3CCOCC3)n2)c1", "measurement_unit": "%", "inhibition at 10 µM": 69.8}
{"compound": "O=[N+]([O-])c1cccc(/C=N/Nc2nc(N/N=C/c3cccc([N+](=O)[O-])c3)nc(N3CCCCC3)n2)c1", "measurement_unit": "%", "inhibition at 10 µM": 35.2}

---

Test system: HS 578T
test_description: NCI 60 antitumor screening (single dose)
Type: cell-based
condition_context: Homo sapiens; HS 578T (breast cancer), single dose 10 μM; read-out: Growth inhibition percentage (GI %)

{"compound": "Brc1cccc(/C=N/Nc2nc(N/N=C/c3cccc(Br)c3)nc(N3CCCCC3)n2)c1 [compound 7c]", "inhibition at 10 µM (%)": -21.2}
{"compound": "Clc1cccc(/C=N/Nc2nc(N/N=C/c3cccc(Cl)c3Cl)nc(N3CCOCC3)n2)c1Cl [compound 6h]", "inhibition at 10 µM (%)": -8.95}
{"compound": "O=[N+]([O-])c1cc(/C=N/Nc2nc(N/N=C/c3ccc(Cl)c([N+](=O)[O-])c3)nc(N3CCCCC3)n2)ccc1Cl [compound 7i]", "inhibition at 10 µM (%)": 46.2}
{"compound": "Clc1cccc(/C=N/Nc2nc(N/N=C/c3cccc(Cl)c3)nc(N3CCOCC3)n2)c1 [compound 6d]", "inhibition at 10 µM (%)": 32.5}
{"compound": "Brc1cccc(/C=N/Nc2nc(N/N=C/c3cccc(Br)c3)nc(N3CCOCC3)n2)c1 [compound 6c]", "inhibition at 10 µM (%)": 33.8}
{"compound": "O=[N+]([O-])c1cccc(/C=N/Nc2nc(N/N=C/c3cccc([N+](=O)[O-])c3)nc(N3CCCCC3)n2)c1 [compound 7f]", "inhibition at 10 µM (%)": 20.8}
{"compound": "Brc1ccccc1/C=N/Nc1nc(N/N=C/c2ccccc2Br)nc(N2CCCCC2)n1 [compound 7b]", "inhibition at 10 µM (%)": -5.25}
{"compound": "Oc1ccccc1/C=N/Nc1nc(N/N=C/c2ccccc2O)nc(N2CCCCC2)n1 [compound 7a]", "inhibition at 10 µM (%)": 23.4}
{"compound": "C(=N\\Nc1nc(N/N=C/c2ccc3c(c2)OCO3)nc(N2CCOCC2)n1)/c1ccc2c(c1)OCO2 [compound 6k]", "inhibition at 10 µM (%)": 16.7}
{"compound": "Fc1cccc(Cl)c1/C=N/Nc1nc(N/N=C/c2c(F)cccc2Cl)nc(N2CCOCC2)n1 [compound 6l]", "inhibition at 10 µM (%)": 5}
{"compound": "CN(C)c1ccc(/C=N/Nc2nc(N/N=C/c3ccc(N(C)C)cc3)nc(N3CCCCC3)n2)cc1 [compound 7g]", "inhibition at 10 µM (%)": -6.05}

---

System: RXF 393
test_description: NCI 60 antitumor screening (single dose / five doses)
Type: cell-based
condition_context: Homo sapiens; RXF 393 (renal cancer), single dose 10 μM; read-out: Growth inhibition percentage (GI %)

{"chemical_structure": "Brc1ccccc1/C=N/Nc1nc(N/N=C/c2ccccc2Br)nc(N2CCCCC2)n1", "inhibition at 10 µM": "2.13%"}
{"chemical_structure": "Fc1cccc(Cl)c1/C=N/Nc1nc(N/N=C/c2c(F)cccc2Cl)nc(N2CCCCC2)n1", "inhibition at 10 µM": "96.6%"}
{"chemical_structure": "Clc1cccc(/C=N/Nc2nc(N/N=C/c3cccc(Cl)c3Cl)nc(N3CCOCC3)n2)c1Cl", "inhibition at 10 µM": "5.06%"}

---

Reported inhibition at 10 µM by item:
Tested on: HOP-62
test_description: NCI 60 antitumor screening (single dose)
Format: cell-based
condition_context: Homo sapiens; HOP-62 (non-small cell lung cancer), single dose 10 μM; read-out: Growth inhibition percentage (GI %)
parameter: inhibition at 10 µM (%)

{"compound": "Fc1cccc(/C=N/Nc2nc(N/N=C/c3cccc(F)c3)nc(N3CCOCC3)n2)c1", "parameter": "inhibition at 10 µM", "assay_result": -5.63}
{"compound": "O=[N+]([O-])c1cccc(/C=N/Nc2nc(N/N=C/c3cccc([N+](=O)[O-])c3)nc(N3CCOCC3)n2)c1", "parameter": "inhibition at 10 µM", "assay_result": 26.4}
{"compound": "C(=N\\Nc1nc(N/N=C/c2ccc3c(c2)OCO3)nc(N2CCCCC2)n1)/c1ccc2c(c1)OCO2", "parameter": "inhibition at 10 µM", "assay_result": -22.5}
{"compound": "COC(=O)C(Cc1ccccc1)Nc1nc(NC(Cc2ccccc2)C(=O)OC)nc(N2CCOCC2)n1 (stereo not drawn)", "parameter": "inhibition at 10 µM", "assay_result": 2.66}
{"compound": "Brc1cccc(/C=N/Nc2nc(N/N=C/c3cccc(Br)c3)nc(N3CCOCC3)n2)c1", "parameter": "inhibition at 10 µM", "assay_result": 47.7}
{"compound": "O=[N+]([O-])c1cccc(/C=N/Nc2nc(N/N=C/c3cccc([N+](=O)[O-])c3)nc(N3CCCCC3)n2)c1", "parameter": "inhibition at 10 µM", "assay_result": 41.5}
{"compound": "CN(C)c1ccc(/C=N/Nc2nc(N/N=C/c3ccc(N(C)C)cc3)nc(N3CCCCC3)n2)cc1", "parameter": "inhibition at 10 µM", "assay_result": 18.2}
{"compound": "Fc1cccc(Cl)c1/C=N/Nc1nc(N/N=C/c2c(F)cccc2Cl)nc(N2CCCCC2)n1", "parameter": "inhibition at 10 µM", "assay_result": 74.1}
{"compound": "C(=N\\Nc1nc(N/N=C/c2ccc3c(c2)OCO3)nc(N2CCOCC2)n1)/c1ccc2c(c1)OCO2", "parameter": "inhibition at 10 µM", "assay_result": 13.6}
{"compound": "Oc1ccc(/C=N/Nc2nc(N/N=C/c3ccc(O)c(O)c3)nc(N3CCOCC3)n2)cc1O", "parameter": "inhibition at 10 µM", "assay_result": -5.33}
{"compound": "O=C1Nc2ccc(Cl)cc2/C1=N\\Nc1nc(N/N=C2/C(=O)Nc3ccc(Cl)cc32)nc(N2CCOCC2)n1", "parameter": "inhibition at 10 µM", "assay_result": 62.4}
{"compound": "Oc1ccccc1/C=N/Nc1nc(N/N=C/c2ccccc2O)nc(N2CCCCC2)n1", "parameter": "inhibition at 10 µM", "assay_result": 44.2}
{"compound": "Fc1cccc(/C=N/Nc2nc(N/N=C/c3cccc(F)c3)nc(N3CCCCC3)n2)c1", "parameter": "inhibition at 10 µM", "assay_result": -7.48}
{"compound": "O=C(NNc1nc(NNC(=O)c2ccccc2)nc(N2CCOCC2)n1)c1ccccc1", "parameter": "inhibition at 10 µM", "assay_result": -11.8}
{"compound": "Oc1ccc(/C=N/Nc2nc(N/N=C/c3ccc(O)c(O)c3)nc(N3CCCCC3)n2)cc1O", "parameter": "inhibition at 10 µM", "assay_result": -10.5}
{"compound": "O=[N+]([O-])c1cc(/C=N/Nc2nc(N/N=C/c3ccc(Cl)c([N+](=O)[O-])c3)nc(N3CCOCC3)n2)ccc1Cl", "parameter": "inhibition at 10 µM", "assay_result": -5.02}
{"compound": "Brc1ccccc1/C=N/Nc1nc(N/N=C/c2ccccc2Br)nc(N2CCCCC2)n1", "parameter": "inhibition at 10 µM", "assay_result": 1.14}
{"compound": "Fc1cccc(Cl)c1/C=N/Nc1nc(N/N=C/c2c(F)cccc2Cl)nc(N2CCOCC2)n1", "parameter": "inhibition at 10 µM", "assay_result": 6.23}
